Measured IC50, listed per entry.
- Study System: recombinant human sulfotransferase domain of NDST-2 (ST2) (Homo sapiens)
- Construct: subcloning the N-sulfotransferase domain of NDST-2 from the vector pFASTBac-GST-NDST-2
- Sequence (P52849 598-883 limits assumed): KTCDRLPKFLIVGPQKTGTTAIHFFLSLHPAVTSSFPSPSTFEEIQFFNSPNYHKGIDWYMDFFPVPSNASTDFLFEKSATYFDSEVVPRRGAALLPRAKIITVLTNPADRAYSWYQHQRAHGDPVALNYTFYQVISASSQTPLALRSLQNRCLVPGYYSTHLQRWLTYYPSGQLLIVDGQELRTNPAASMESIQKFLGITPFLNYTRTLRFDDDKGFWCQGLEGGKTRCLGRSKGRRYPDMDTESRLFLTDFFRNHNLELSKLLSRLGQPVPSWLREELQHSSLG
- Measurement Protocol: Solid phase SPA assay for N-sulfotransferase activity (ST2)
- Cond: ST2 2.5 μg/well, fully desulfated heparin pre-coated WGA-SPA beads, 35[S]-PAPS 10 nCi/well, room temperature 5 h

[
  {
    "Smiles Str": "CC(C)c1ccc(O)c(CN(CP(=O)(O)O)CP(=O)(O)O)c1",
    "IC50": "~520 nM"
  }
]

Let me know recorded IC50 for O=P(O)(O)CC(Cc1ccc(Cl)cc1)CP(=O)(O)O , thanks.
~399 nM

###

- Study System: recombinant human wild-type NDST-2 (Homo sapiens)
- Construct: the DNA fragment consisting of nucleotides 133-2651 of the human NDST-2 cDNA
- Measurement Protocol: Solid phase SPA assay for N-sulfotransferase activity (wild-type NDST-2)
- Cond: wild-type NDST-2 0.4 μg/well, fully desulfated heparin pre-coated WGA-SPA beads, 35[S]-PAPS 10 nCi/well, room temperature 5 h
pIC50: −log10 of the molar value.
Measured Attribute: pIC50

[
  {
    "Compound": "CC(C)c1ccc(O)c(CN(CP(=O)(O)O)CP(=O)(O)O)c1 [Compound B]",
    "Study System": "recombinant human wild-type NDST-2 (Homo sapiens)",
    "pIC50": "~5.61"
  }
]

We next turn to a different compound, shown below.
State the measured pIC50 (recombinant human wild-type NDST-2 (Homo sapiens)) of O=P(O)(O)CC(Cc1ccc(Cl)cc1)CP(=O)(O)O [Compound A]
~5.77
